# assay explanation: Mixed type inhibition of Saccharomyces cerevisiae alpha-glucosidase using p-nitrophenyl-alpha-D-glucopyranoside as substrate by Lineweaver-Burk plot and Dixon plot analysis
property name: Ki (µM)
Numbers only, in µM.

* COc1cc(-c2oc3cc(O)cc(O)c3c(=O)c2O)ccc1O [ISORHAMNETIN] | 1910

// below: Ki requested for another compound
State, in one line, measured Ki of C=C1C(=O)O[C@@H]2C[C@@H](C)/C=C\C(=O)[C@](C)(O)[C@H](OC(C)=O)[C@@H](OC(=O)/C(C)=C/C)[C@@H]12 [CALEIN C]
410
